Test system: interferon (α)
assay_comment: Cytokine Induction in Human Cells: interferon (α) by ELISA
Format: cell-based
recorded_conditions: human PBMC, 18 to 24 hours incubation, compounds generally tested at 30-0.014 μM; read-out: Lowest Effective Concentration Interferon
Would you kindly list minimal effective concentration for each of these compounds?
Answers are plain numbers, in µM.

1) COc1ccc(NC(=S)NCCCCn2cnc3c(N)nc(C)c(C)c32)cc1 | 3.33
2) CCOCc1nc2c(N)nc(C)c(C)c2n1CCC1CCN(C(=O)Nc2cccc(OC)c2)CC1 | 0.37
3) CCOCc1nc2c(N)nc(C)cc2n1CCCCNC(=O)N[C@@H]1C[C@H]1c1ccccc1 (relative stereo) | 3.33
4) CCOCc1nc2c(N)nc(C)c(C)c2n1CCC1CCN(C(=O)NC2CCCCC2)CC1 | 0.37
5) CCOCc1nc2c(N)nc(C)c(C)c2n1CCC1CCN(C(=S)Nc2ccccc2)CC1 | 0.37
6) CCOCc1nc2c(N)nc(C)c(C)c2n1CCC1CCN(C(=O)N(C)c2ccccc2)CC1 | 0.37
7) CCOCc1nc2c(N)nc(C)c(C)c2n1CCC1CCN(C(=O)Nc2ccccc2)CC1 | 0.37
8) CCOCc1nc2c(N)nc(C)c(C)c2n1CCC1CCN(C(=O)N2CCOCC2)CC1 | 1.11

Provide minimal effective concentration for all items below, preserving their order.
1. Cc1nc(N)c2ncn(CCCCNC(=S)Nc3ccccc3)c2c1C
2. CCOCc1nc2c(N)nc(C)c(C)c2n1CCC1CCN(C(=O)NC(C)C)CC1
3. Cc1nc(N)c2ncn(CCCCNC(=O)NC(C)(C)C)c2c1C
4. CCCCc1nc2c(N)nc(C)c(C)c2n1CCCCNS(=O)(=O)c1ccc(F)cc1 [Example 3, Hydrate]
5. CCCCc1nc2c(N)nc(C)c(C)c2n1CCCCNS(C)(=O)=O
6. CCOCc1nc2c(N)nc(C)cc2n1CCCCNC(=S)NCCc1ccccc1

1: 3.33; 2: 1.11; 3: 30; 4: 0.01; 5: 0.0046; 6: 3.33

Fill in: minimal effective concentration of Cc1nc(N)c2nc(C)n(CCCCNS(C)(=O)=O)c2c1C is ___
0.37
